Measured pEC50 of individual entries
target: human F508del CFTR (Homo sapiens, UniProt P13569, DEL508-508); assay: CFTR-YFP High Throughput Assay; conditions: FRT cells expressing human F508del CFTR and YFP
Sequence (P13569 with tags, fused parts or gaps DEL508-508): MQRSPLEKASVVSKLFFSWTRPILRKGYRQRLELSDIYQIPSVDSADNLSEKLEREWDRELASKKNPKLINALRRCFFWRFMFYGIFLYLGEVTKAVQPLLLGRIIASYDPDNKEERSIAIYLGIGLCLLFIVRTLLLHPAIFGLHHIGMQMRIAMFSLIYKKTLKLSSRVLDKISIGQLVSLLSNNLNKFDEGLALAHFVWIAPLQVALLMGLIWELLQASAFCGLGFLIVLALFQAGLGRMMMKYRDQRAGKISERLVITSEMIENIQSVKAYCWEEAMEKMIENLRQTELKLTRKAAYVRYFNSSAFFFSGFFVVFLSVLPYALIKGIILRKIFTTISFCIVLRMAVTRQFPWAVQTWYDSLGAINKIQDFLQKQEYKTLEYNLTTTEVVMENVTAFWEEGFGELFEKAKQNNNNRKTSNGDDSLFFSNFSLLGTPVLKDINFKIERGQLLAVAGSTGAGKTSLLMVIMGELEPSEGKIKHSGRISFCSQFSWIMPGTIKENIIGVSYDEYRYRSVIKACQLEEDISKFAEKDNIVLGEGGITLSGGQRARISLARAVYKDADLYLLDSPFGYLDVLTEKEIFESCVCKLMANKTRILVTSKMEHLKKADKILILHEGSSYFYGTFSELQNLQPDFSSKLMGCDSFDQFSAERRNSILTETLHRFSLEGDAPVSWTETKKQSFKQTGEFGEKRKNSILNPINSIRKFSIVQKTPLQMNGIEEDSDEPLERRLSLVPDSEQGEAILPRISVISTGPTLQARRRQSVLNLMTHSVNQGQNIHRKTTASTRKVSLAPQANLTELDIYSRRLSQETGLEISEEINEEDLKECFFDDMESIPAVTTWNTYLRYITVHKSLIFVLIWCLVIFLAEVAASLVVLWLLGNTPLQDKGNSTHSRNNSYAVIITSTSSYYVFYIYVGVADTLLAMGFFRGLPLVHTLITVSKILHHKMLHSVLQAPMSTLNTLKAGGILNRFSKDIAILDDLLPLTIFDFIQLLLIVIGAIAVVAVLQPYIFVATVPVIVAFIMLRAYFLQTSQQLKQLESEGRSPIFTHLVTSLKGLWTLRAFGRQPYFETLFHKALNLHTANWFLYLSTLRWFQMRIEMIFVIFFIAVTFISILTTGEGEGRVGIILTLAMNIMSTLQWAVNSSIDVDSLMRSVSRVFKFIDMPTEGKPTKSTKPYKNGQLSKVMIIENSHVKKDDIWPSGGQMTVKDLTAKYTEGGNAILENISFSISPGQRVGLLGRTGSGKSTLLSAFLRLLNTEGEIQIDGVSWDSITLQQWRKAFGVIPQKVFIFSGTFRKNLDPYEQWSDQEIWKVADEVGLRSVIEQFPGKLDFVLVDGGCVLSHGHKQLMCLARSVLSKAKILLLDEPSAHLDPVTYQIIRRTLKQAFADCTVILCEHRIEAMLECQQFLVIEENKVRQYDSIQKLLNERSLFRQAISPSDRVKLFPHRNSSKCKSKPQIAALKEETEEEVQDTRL
pEC50: −log10 of the molar value.

>  <compound>
Cc1nc2ccc(N(C)C(=O)Cn3nc(-c4cccc(C#N)c4)c4ccc(OC5CCCCC5)cc4c3=O)cc2o1 [Example 115]

>  <target-system>
human F508del CFTR (Homo sapiens, UniProt P13569, DEL508-508)

>  <pEC50>
> 5.00

$$$$
>  <compound>
CCN(C(=O)Cn1ncc2c(c1=O)c1ccccc1n2Cc1ccc(C#N)cc1F)c1ccc2c(c1)OC(F)(F)O2 [Example 146]

>  <target-system>
human F508del CFTR (Homo sapiens, UniProt P13569, DEL508-508)

>  <pEC50>
> 5.00

$$$$
>  <compound>
CCc1ccc(N(CC)C(=O)Cn2nc(Cc3cccnc3)c3ccccc3c2=O)cc1 [Example 25]

>  <target-system>
human F508del CFTR (Homo sapiens, UniProt P13569, DEL508-508)

>  <pEC50>
4.70 to 5.00

$$$$

The values you see were collected from patent US10370366B2.
